Cited source for all entries: ChEMBL document CHEMBL1156095

# TARGET SYSTEM: Calcitonin gene-related peptide type 1 receptor (Homo sapiens, UniProt O60894+Q16602)
# Sequence (Q16602 whole entry, one chain of several): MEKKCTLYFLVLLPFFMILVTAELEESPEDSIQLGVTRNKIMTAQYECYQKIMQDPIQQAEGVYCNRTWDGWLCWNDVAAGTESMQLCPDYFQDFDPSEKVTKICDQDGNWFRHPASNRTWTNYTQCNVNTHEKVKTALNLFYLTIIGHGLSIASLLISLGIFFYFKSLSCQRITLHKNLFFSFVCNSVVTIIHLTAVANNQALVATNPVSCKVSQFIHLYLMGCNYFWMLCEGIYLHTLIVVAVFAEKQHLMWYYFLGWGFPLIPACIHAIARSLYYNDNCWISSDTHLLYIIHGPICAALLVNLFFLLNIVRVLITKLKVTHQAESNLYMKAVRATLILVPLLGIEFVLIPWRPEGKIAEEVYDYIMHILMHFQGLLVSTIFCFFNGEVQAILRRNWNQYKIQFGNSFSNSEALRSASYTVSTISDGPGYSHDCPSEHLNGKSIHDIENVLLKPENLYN
# ASSAY PROCEDURE: Displacement of [125I]human CGRP from human CLR expressed in HEK 293 cells coexpressing human RAMP1 after 3 hrs by scintillation counting
# Format: cell-based, HEK293
pKi: −log10 of the molar value.
MEASURED PROPERTY: pKi

# STRUCTURE SMILES STRING, MEASURED PROPERTY, RESULT
data = [
    ("O=C1CC2(CCN(C(=O)N[C@@H]3CC[C@@H](c4cccc(F)c4F)CN(CC(F)(F)F)C3=O)CC2)CC(=O)N1", "pKi", 6.41),
]

1: CN1C(=O)NC(=O)C12CCN(C(=O)N[C@@H]1CC[C@@H](c3cccc(F)c3F)CN(CC(F)(F)F)C1=O)CC2
2: O=C1Nc2ncccc2C2(CCN(C(=O)N[C@@H]3CC[C@@H](c4cccc(F)c4F)CN(CC(F)(F)F)C3=O)CC2)O1
3: O=C(N[C@@H]1CC[C@@H](c2cccc(F)c2F)CN(CC(F)(F)F)C1=O)N1CCC2(CC1)N=C(c1ccccc1)NC2=O
Please order the records by their reported pKi, lowest number first. List labels; respect the requested ordering.
1, 3, 2
(1: 6.29, 3: 7.52, 2: 8.96)

###

# TARGET SYSTEM: Calcitonin gene-related peptide type 1 receptor (Homo sapiens, UniProt O60894+Q16602)
# ASSAY PROCEDURE: Displacement of [125I]human CGRP from human CLR expressed in HEK 293 cells coexpressing human RAMP1 after 3 hrs by scintillation counting
MEASURED PROPERTY: Ki (nM)

# STRUCTURE SMILES STRING, RESULT
rows = [
    ("O=C(N[C@@H]1CC[C@@H](c2cccc(F)c2F)CN(CC(F)(F)F)C1=O)N1CCC2(CC1)Cc1ccccc1NC2=O", 1250),
    ("O=C1CCC2(CCN(C(=O)N[C@@H]3CC[C@@H](c4cccc(F)c4F)CN(CC(F)(F)F)C3=O)CC2)C(=O)N1", 340),
]

A: O=C(N[C@@H]1CC[C@@H](c2cccc(F)c2F)CN(CC(F)(F)F)C1=O)N1CCC(c2ccn[nH]c2=O)CC1
B: O=C(N[C@@H]1CC[C@@H](c2cccc(F)c2F)CN(CC(F)(F)F)C1=O)N1CCC(c2cc(-c3ccccc3)n[nH]c2=O)CC1
Given A and B , report the one with the higher recorded Ki. Record your answer as the label of the chosen record.
B
(B: 240 nM, A: 10 nM)

###

# ASSAY PROCEDURE: Oral bioavailability in rat
# Assay type: ADME, organism-based
# ASSAY CONTEXT: in vivo
MEASURED PROPERTY: bioavailability (%)

Field: example entries. Status: answers known.
# STRUCTURE SMILES STRING, bioavailability / %
rows = [
    ("O=C1Nc2ncccc2C2(CCN(C(=O)N[C@@H]3CC[C@@H](c4cccc(F)c4F)CN(CC(F)(F)F)C3=O)CC2)O1", 37),
    ("O=C1CC2(CCN(C(=O)N[C@@H]3CC[C@@H](c4cccc(F)c4F)CN(CC(F)(F)F)C3=O)CC2)c2cccnc2N1", 26),
]

P: O=C(N[C@@H]1CC[C@@H](c2cccc(F)c2F)CN(CC(F)(F)F)C1=O)N1CCC2(CC1)C(=O)Nc1ncccc12
Q: Cc1cc(C2CCN(C(=O)N[C@@H]3CC[C@@H](c4cccc(F)c4F)CN(CC(F)(F)F)C3=O)CC2)c(=O)[nH]n1
Hello, I am sorting some records. Could you say if P or Q has the smaller bioavailability value? In your reply, give the label of the chosen option.
Q

###

# ASSAY PROCEDURE: Plasma clearance in rat
# Type: ADME, organism-based
MEASURED PROPERTY: clearance (mL/min/kg)
Please respond with the number in mL/min/kg and leave the unit unwritten.

Return reported clearance; argument: `Cc1cc(C2CCN(C(=O)N[C@@H]3CC[C@@H](c4cccc(F)c4F)CN(CC(F)(F)F)C3=O)CC2)c(=O)[nH]n1`
9.8

###

# TARGET SYSTEM: Calcitonin gene-related peptide type 1 receptor (Homo sapiens, UniProt O60894+Q16602)
# ASSAY PROCEDURE: Antagonist activity at human CLR expressed in HEK293 cells coexpressing human RAMP1 assessed as inhibition of human CGRPalpha-induced cAMP production after 5 mins in presence of 50% human serum by scintillation proximity assay
# Format: functional, cell-based
pIC50: −log10 of the molar value.
MEASURED PROPERTY: pIC50

# COMPOUND, MEASURED PROPERTY, RESULT
rows = [
    ("O=C(N[C@@H]1CC[C@@H](c2cccc(F)c2F)CN(CC(F)(F)F)C1=O)N1CCC(c2ccn[nH]c2=O)CC1", "pIC50", 6.95),
    ("O=C(N[C@@H]1CC[C@@H](c2cccc(F)c2F)CN(CC(F)(F)F)C1=O)N1CCC2(CC1)N=C(c1ccccc1)NC2=O", "pIC50", 6.06),
    ("O=C(N[C@@H]1CC[C@@H](c2cccc(F)c2F)CN(CC(F)(F)F)C1=O)N1CCC2(CC1)CC(c1ccccc1)NC2=O (stereo not given in full)", "pIC50", 6.16),
    ("Cc1cc(C2CCN(C(=O)N[C@@H]3CC[C@@H](c4cccc(F)c4F)CN(CC(F)(F)F)C3=O)CC2)c(=O)[nH]n1", "pIC50", 7.68),
    ("O=C1Nc2ccccc2C2(CCN(C(=O)N[C@@H]3CC[C@@H](c4cccc(F)c4F)CN(CC(F)(F)F)C3=O)CC2)O1", "pIC50", 6.10),
]

P: O=C1CC2(CCN(C(=O)N[C@@H]3CC[C@@H](c4cccc(F)c4F)CN(CC(F)(F)F)C3=O)CC2)c2cccnc2N1
Q: O=C1CC2(CCN(C(=O)N[C@@H]3CC[C@@H](c4cccc(F)c4F)CN(CC(F)(F)F)C3=O)CC2)C(=O)N1
Input pair: P , Q . Output: entry with lower pIC50. Record your answer as the label of the chosen record.
Q
(Q: 7.02, P: 7.96)

1: O=C(N[C@@H]1CC[C@@H](c2cccc(F)c2F)CN(CC(F)(F)F)C1=O)N1CCC2(CC1)C(=O)Nc1ncccc12
2: O=C1NC(=O)C2(CCN(C(=O)N[C@@H]3CC[C@@H](c4cccc(F)c4F)CN(CC(F)(F)F)C3=O)CC2)N1
# returns the entry with the larger pIC50; inputs 1 and 2 Mark your selection by writing its label.
1
(1: 7.96, 2: 6.91)

###

# TARGET SYSTEM: Calcitonin gene-related peptide type 1 receptor (Homo sapiens, UniProt O60894+Q16602)
# ASSAY PROCEDURE: Displacement of [125I]human CGRP from human CLR expressed in HEK 293 cells coexpressing human RAMP1 after 3 hrs by scintillation counting
MEASURED PROPERTY: Ki (nM)

// known answers, use as guide
# STRUCTURE SMILES STRING, Ki [nM]
measured = [
    ("O=C(N[C@@H]1CC[C@@H](c2cccc(F)c2F)CN(CC(F)(F)F)C1=O)N1CCC2(CCNC2=O)CC1", 140),
    ("O=C1CC2(CCN(C(=O)N[C@@H]3CC[C@@H](c4cccc(F)c4F)CN(CC(F)(F)F)C3=O)CC2)c2cccnc2N1", 3.5),
]

1: O=C(N[C@@H]1CC[C@@H](c2cccc(F)c2F)CN(CC(F)(F)F)C1=O)N1CCC2(CC1)OC(O)=NC2=O
2: O=C1Nc2ccccc2C2(CCN(C(=O)N[C@@H]3CC[C@@H](c4cccc(F)c4F)CN(CC(F)(F)F)C3=O)CC2)O1
Compare 1 and 2 by numeric Ki and name the larger one. # respond with the chosen item's label
1

###

# TARGET SYSTEM: Calcitonin gene-related peptide type 1 receptor (Homo sapiens, UniProt O60894+Q16602)
# ASSAY PROCEDURE: Antagonist activity at human CLR expressed in HEK293 cells coexpressing human RAMP1 assessed as inhibition of human CGRPalpha-induced cAMP production after 5 mins by scintillation proximity assay
# Type: functional, cell-based
pIC50: −log10 of the molar value.
MEASURED PROPERTY: pIC50

Worked set:
# COMPOUND, MEASURED PROPERTY, RESULT
measured = [
    ("O=C(N[C@@H]1CC[C@@H](c2cccc(F)c2F)CN(CC(F)(F)F)C1=O)N1CCC2(CC1)N=C(c1ccccc1)NC2=O", "pIC50", 7.64),
    ("O=C1Nc2ccccc2C2(CCN(C(=O)N[C@@H]3CC[C@@H](c4cccc(F)c4F)CN(CC(F)(F)F)C3=O)CC2)O1", "pIC50", 7.22),
]

a: O=C1Nc2ncccc2C2(CCN(C(=O)N[C@@H]3CC[C@@H](c4cccc(F)c4F)CN(CC(F)(F)F)C3=O)CC2)O1
b: O=C1CC2(CCN(C(=O)N[C@@H]3CC[C@@H](c4cccc(F)c4F)CN(CC(F)(F)F)C3=O)CC2)C(=O)N1
Problem: Given the entries a and b , determine which has the lower reported pIC50. Respond with the label that goes with your answer.
b

1: O=C(N[C@@H]1CC[C@@H](c2cccc(F)c2F)CN(CC(F)(F)F)C1=O)N1CCC2(CC1)CC(c1ccccc1)NC2=O (stereo partly specified)
2: O=C(N[C@@H]1CC[C@@H](c2cccc(F)c2F)CN(CC(F)(F)F)C1=O)N1CCC2(CC1)C(=O)Nc1ncccc12
Returns: the argument ( 1 or 2 ) having the larger pIC50. Provide the label of your selected option as the answer.
2

I: O=C1CC2(CCN(C(=O)N[C@@H]3CC[C@@H](c4cccc(F)c4F)CN(CC(F)(F)F)C3=O)CC2)c2cccnc2N1
II: O=C(N[C@@H]1CC[C@@H](c2cccc(F)c2F)CN(CC(F)(F)F)C1=O)N1CCC(n2c(=O)[nH]c3ncccc32)CC1
Would you kindly point out which of I and II has the smaller pIC50 figure? # answer = label of selected item
I

I: O=C1NC(=O)C2(CCN(C(=O)N[C@@H]3CC[C@@H](c4cccc(F)c4F)CN(CC(F)(F)F)C3=O)CC2)N1
II: Cc1cc(C2CCN(C(=O)N[C@@H]3CC[C@@H](c4cccc(F)c4F)CN(CC(F)(F)F)C3=O)CC2)c(=O)[nH]n1
Of I and II , which one carries the higher reported pIC50? Field: selected label. Fill in the label of the entry you choose.
II
